- System: HT29 colon
- method.summary: NCI tumour cell line growth inhibition, 48 h
measure.name: log10 of TGI (log10 of the value in µM)
# log10 transformed; quantity=TGI; unit=µM

Some molecules with recorded log10 of TGI:
COc1ncc(-c2ccc3ncnc(Nc4cccc(Cl)c4)c3c2)cc1NS(C)(=O)=O: 1.12
COc1ccc(/C=N/NC(=O)CSc2nc(-c3ccccc3)c(-c3ccccc3)[nH]2)cc1OC: 1.78
CCCCCCCCCc1cc(=O)c2c(O)cc(O)cc2o1: 1.54
COc1ccccc1NC(=O)C1=C(C)NC(C)=C(C(=O)Nc2ccccc2OC)C1c1ccc(C2C(C(=O)Nc3ccccc3OC)=C(C)NC(C)=C2C(=O)Nc2ccccc2OC)cc1: 0.66
O=C1/C(=C/c2ccc([N+](=O)[O-])cc2)Sc2scc(-c3cccc([N+](=O)[O-])c3)[n+]21: 0.97

# context switch: different molecule, same log10 of TGI
Quick one: log10 of TGI for `COc1ccc(OC)c(-c2nc3sc(C)cn3c2/C=C2\C(=O)N(C)c3ccccc32)c1` ?
1.85

###

- System: HS 578T breast
- method.summary: NCI tumour cell line growth inhibition, 48 h; in the data active means GI50 below about 0.43 µM; inactive means the rest
Choose the fitting class; nothing outside 1.0 (active), 0.0 (inactive) is accepted.

Completed entries (count: 2):
CCC1C[N+]2=C(c3cc(OC)c(OC)cc3CC2)c2c1cc1n2CCc2cc(OC)c(OC)cc2-1 (stereo unspecified): 0.0
O=C(Oc1c(Cl)c(Cl)c(Cl)c(Cl)c1Cl)C1CCCN1C(=O)OCc1ccccc1 (stereo unspecified): 0.0

Please let me know the test result on file for `COc1ccc(C(=O)c2cc(C)c(OC)c(C)c2)c(OC)c1OC(=O)C(Cl)Cl` .
1.0

Please let me know the test result on file for Cc1nc2sc(C(=O)Nc3cccc(Cl)c3C)c(N)c2cc1C(O)c1ccccc1 (stereo unspecified) .
1.0

Please let me know the test result on file for CCN(CC)CCC(CNc1c(C)cnc2cc(Cl)ccc12)c1ccc(Cl)c(Cl)c1 (stereo unspecified) .
0.0

Please let me know the test result on file for `COc1cc(-c2cn(-c3ccc(F)cc3)c(=O)[nH]2)cc(OC)c1OC` .
0.0

Please let me know the test result on file for `N#Cc1cc2c(=S)[nH]c(=S)[nH]c2nc1SCc1ccccc1` .
0.0

Please let me know the test result on file for `Clc1ccc2c(NCCNc3nc(N4CCCCC4)nc4ccccc34)ccnc2c1` .
0.0

Please let me know the test result on file for O=C(C[n+]1ccn(CC(OCc2ccc(Cl)cc2Cl)c2ccc(Cl)cc2Cl)c1)c1ccc(F)cc1 (stereo unspecified) .
0.0

###

TGI for assorted compounds
- Test system: OVCAR-8 ovarian
- method.summary: NCI tumour cell line growth inhibition, 48 h

O=C(O)c1ccccc1C(=O)Nc1cc2c(cc1Br)-c1ccccc1C2=O: > 100 µM
CCCCc1n(Cc2ccc3ccccc3n2)cc[n+]1Cc1ccc2ccccc2c1: 3.17 µM
CN(C)c1ccc(/C=C2\C[C@H]3[C@@H]4CC=C5C[C@@H](O)CC[C@]5(C)[C@H]4CC[C@]3(C)[C@H]2O)cc1: 13.1 µM

Quick one: TGI for O=S(C(c1ccccc1)=P(c1ccccc1)(c1ccccc1)c1ccccc1)c1ccc(Cl)cc1 (stereo unspecified) ?
> 100 µM

Quick one: TGI for `Clc1cccc(/C=c2\nc(-c3ccccc3)n3c2nc2ccccc23)c1` ?
> 100 µM

Quick one: TGI for `COc1ccc([C@H]2[C@@H]3CCc4ccccc4C3=NN2C(N)=S)cc1OC` ?
> 100 µM

Quick one: TGI for `Nc1csc(-c2scc3c2OCCO3)c1N` ?
40.1 µM

Quick one: TGI for CCCCCCCCCCCCCCCCCCOC(COP(=O)(O)OCC1OC(n2cc(F)c(=O)[nH]c2=O)CC1O)COP(=O)(O)OCC1OC(n2ccc(N)nc2=O)C(O)C1O (stereo unspecified) ?
> 100 µM

Quick one: TGI for `COC(=O)[C@]12CC[C@@H](C)[C@H](C)[C@@H]1C1=CC[C@@H]3[C@@]4(C)C(C=O)=C[C@@](C)(COC(=O)c5ccco5)C4=CC[C@@]3(C)[C@]1(C)CC2` ?
15.9 µM

Quick one: TGI for `CCC1=NC(N/N=C/c2ccco2)=N/C1=C\c1ccco1` ?
> 100 µM

Quick one: TGI for `NC(=O)/C=C/c1c[nH]c2nccnc12` ?
> 87.5 µM

Quick one: TGI for CCC1C[N+]2=C(c3cc(OC)c(OC)cc3CC2)c2c1cc1n2CCc2cc(OC)c(OC)cc2-1 (stereo unspecified) ?
82.1 µM

Quick one: TGI for CC(C)=CC1(C)/C(=N\O)C(C)(CC(C)C)C(=O)N1O (stereo unspecified) ?
> 100 µM

Quick one: TGI for `O=C(/C=C/c1ccco1)N1CCN(Cc2ccccc2)CC1` ?
> 100 µM

Quick one: TGI for `C[C@@H]1C[C@@H]2C(=O)N(c3ccccc3)C(=O)[C@@H]2c2[nH]c3ccc(Br)cc3c21` ?
47.1 µM

Quick one: TGI for `COc1ccc(-n2nc(C(=O)c3ccccc3)c3nn4c(=O)cc(-c5ccccc5)nc4nc32)cc1` ?
> 100 µM

Quick one: TGI for `COc1ccc(-c2n[nH]c3nc4ccccc4n3c2=O)cc1` ?
> 100 µM
